ASSAY_PROTOCOL: Plasma and CSF pharmacokinetic study, single sublingual, oral or subcutaneous dose, male Beagle dogs
Type: in vivo
APPLIED_CONDITIONS: male, beagle, dog, in vivo, 5 mg/kg, maximum plasma concentration (Cmax)
ATTRIBUTE_MEASURED: Cmax (ng/mL)
Report only the number, with the unit ng/mL understood.

[ask] Give the measured Cmax of CN1CCc2cccc3c2[C@@H]1Cc1ccc(O)c(O)c1-3 .
[reply] 143

----------
ASSAY_PROTOCOL: in vivo
APPLIED_CONDITIONS: male, C57BL/6J, mouse, sc, 0.0367 mg/kg, Cmax
ATTRIBUTE_MEASURED: Cmax (ng/mL)
# output: bare number, implied unit ng/mL

[ask] I'd like to know its Cmax. The molecule in question is CN1CCc2cccc3c2[C@H]1Cc1ccc(O)c(O)c1-3
[reply] 8.56
